Listed below: TGI values for each entry.
# System: SK-OV-3 ovarian
# PROTOCOL: NCI tumour cell line growth inhibition, 48 h
MEASURED QUANTITY: TGI (µM)

compound=CC12CCC3(CCC(=O)NCCCNc4ccnc5cc(Cl)ccc45)[C@@](C)(OO[C@]3(C)O1)O2 numeric_readout=16.1
compound="N#CC1=C(c2cccs2)Nc2c(c(-c3ccccc3)nn2-c2ccccc2)C12C(=O)Nc1ccccc12 (centres undefined)" numeric_readout=33.2
compound=Cc1ccc(Nc2nnc(-c3c[nH]c4ccccc34)o2)c(C)c1 numeric_readout=23.8
compound="CN(C)CCOc1ccc(C(=O)C2[C@H](c3ccc(Cl)cc3)[C@@H](c3ccccc3)NC23C(=O)Nc2ccc(Cl)cc23)cc1 (some centres undefined)" numeric_readout=27.7
